FYI, the data here is from patent US20250179047A1.

Reported pKi values for a set of compounds
- System: BCLXL WT (Homo sapiens (Human), UniProt Q07817)
- Sequence (Q07817 other isoform, or with tags, fused parts or gaps): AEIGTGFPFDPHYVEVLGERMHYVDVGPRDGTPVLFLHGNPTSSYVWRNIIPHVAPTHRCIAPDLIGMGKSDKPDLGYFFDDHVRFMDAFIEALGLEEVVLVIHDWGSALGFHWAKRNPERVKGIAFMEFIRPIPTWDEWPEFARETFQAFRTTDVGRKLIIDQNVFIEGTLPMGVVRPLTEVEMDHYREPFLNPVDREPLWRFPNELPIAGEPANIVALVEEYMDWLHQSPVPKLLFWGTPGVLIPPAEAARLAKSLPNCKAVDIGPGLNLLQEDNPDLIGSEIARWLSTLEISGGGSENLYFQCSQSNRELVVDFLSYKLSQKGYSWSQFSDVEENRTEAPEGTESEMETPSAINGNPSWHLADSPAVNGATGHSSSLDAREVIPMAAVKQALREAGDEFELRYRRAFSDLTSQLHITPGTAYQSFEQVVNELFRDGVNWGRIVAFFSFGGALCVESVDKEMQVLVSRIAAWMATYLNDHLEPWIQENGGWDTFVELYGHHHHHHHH
Here pKi is given on a logarithmic scale as minus log10 of the concentration in mol/L.

Please review the following examples before continuing.
# Compound, pKi
measured = [
    ("Cc1c(N(C(=O)c2cc(-c3cc4c(cc3C(=O)N3Cc5ccccc5C[C@H]3CN3CC[C@H](C)C3)CN(C(=O)Cc3ccc(OCCN5CCOCC5)cc3F)CC4)n(C)c2C)c2ccc(O)cc2)cc(C#N)n1C", 8.70),
    ("COc1ccc(N(C(=O)c2cc(-c3cc4c(cc3C(=O)N3Cc5ccccc5C[C@H]3CN(C)C(C)C)CN(C(=O)Cc3ccc(OCCN5CCOCC5)cc3F)CC4)n(C)c2C)c2ccc(O)cc2)cc1C#N", 8.21),
    ("Cc1c(N(C(=O)c2cc(-c3cc4c(cc3C(=O)N3Cc5ccccc5C[C@H]3CN3CCCCC3)CN(C(=O)Cc3ccc(OCC(C)N5CCOCC5)cc3F)CC4)n(C)c2C)c2ccc(O)cc2)cc(C#N)n1C (single isomer, unassigned)", 8.96),
]

From here, focus on the item given below.
// pKi lookup, key: Cc1c(N(C(=O)c2cc(-c3cc4c(cc3C(=O)N3Cc5ccccc5C[C@H]3CN3CCC[C@H](C)C3)CN(C(=O)Cc3ccc(OCCN5CCOCC5)cc3F)CC4)n(C)c2C)c2ccc(O)cc2)cc(C#N)n1C
8.11
